meta.source: the RNAGym collection of RNA variant scans (doi:10.1073/pnas.2313332121)

B1: TPR 5TU (parent)
chain: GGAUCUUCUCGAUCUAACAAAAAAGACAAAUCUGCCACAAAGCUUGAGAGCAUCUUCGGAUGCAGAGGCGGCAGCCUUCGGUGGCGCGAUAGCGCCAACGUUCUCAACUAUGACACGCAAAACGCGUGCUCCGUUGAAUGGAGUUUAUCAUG

Variants of: B1
Test: polymerase ribozyme fitness, log enrichment relative to wild type (log ratio); higher = more active; in vitro selection for triplet polymerase activity
This sample holds only a part of the variants without activity.
result-type: polymerase ribozyme fitness (log ratio)

>>> endpoint_result("U56G G58C C99G")
-2.63
>>> endpoint_result("U53G A60G C87A")
"≤ -4.2"
>>> endpoint_result("C32G U146A")
-3.88
>>> endpoint_result("C10U A47U G59C A60G G62A A110U G141C U145A U148A")
"≤ -4.2"

Look up polymerase ribozyme fitness (log ratio) for this variant: C57G G65C G84A U139A G140U
≤ -4.2

Now this one: C14G A52G C75U C85U U144C
-3.71

Quick one: G100C G136U U146G
≤ -4.2

Field entry: C54U U55G C95A A119C U127G A142C
≤ -4.2

Also check C63A G92U C116U
-3.98

Same read-out for A16C A52U C85G A122G G124C ?
≤ -4.2

Cool, now A41U G83U
-1.35

What do you get for C38A G84A G86C G117U ?
≤ -4.2
